Where these numbers come from: patent US20230233569A1

Quick reference for IC50 among some molecules
target: KRAS G12C (Homo sapiens, UniProt P01116+P62937, G12C); assay: Disruption of BRAF RBD interaction with Ras (FRET / MOA assay, with Cyclophilin A); format: biochemical; conditions: read-out: KRAS G12C FRET data, IC50
Sequence (P01116 1-169 isoform P01116-2 G12C): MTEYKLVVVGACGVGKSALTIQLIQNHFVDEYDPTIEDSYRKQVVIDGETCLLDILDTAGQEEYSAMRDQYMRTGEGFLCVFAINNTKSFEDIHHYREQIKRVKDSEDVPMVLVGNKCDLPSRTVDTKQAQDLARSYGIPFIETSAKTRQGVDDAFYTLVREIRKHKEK
Sequence (P62937 whole entry): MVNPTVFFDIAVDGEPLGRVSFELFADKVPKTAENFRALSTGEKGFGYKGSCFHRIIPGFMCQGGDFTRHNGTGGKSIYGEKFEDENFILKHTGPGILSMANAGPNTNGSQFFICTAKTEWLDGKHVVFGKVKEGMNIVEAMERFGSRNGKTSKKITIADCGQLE
Reported property: IC50

Molecule: CCn1c(-c2cccnc2[C@H](C)OC)c2c3cc(ccc31)-c1csc(n1)C[C@H](NC(=O)[C@H](C(C)C)N(C)C(=O)N(C)C)C(=O)N1CCC[C@H](N1)C(=O)OCC(C)(C)C2 (racemic)
Value: 10 to 100 nM
//
Molecule: CCn1c(-c2cc(C3CCN(C)CC3)cnc2[C@H](C)OC)c2c3cc(ccc31)-c1cc(O)cc(c1)C[C@H](NC(=O)[C@H](C(C)C)N(C)C(=O)[C@@H]1OCC[C@@H]1c1ccccc1)C(=O)N1CCC[C@H](N1)C(=O)OCC(C)(C)C2 (atropisomer, axis not shown)
Value: < 10 nM
//
Molecule: CCn1c(-c2cccnc2[C@H](C)OC)c2c3cc(ccc31)-c1csc(n1)C[C@H](NC(=O)[C@@H]1CCCO1)C(=O)N1CCC[C@H](N1)C(=O)OCC(C)(C)C2
Value: 100 to 1000 nM
//
Molecule: CCn1c(-c2cnccc2COC)c2c3cc(ccc31)-c1cc(O)cc(c1)C[C@H](NC(=O)[C@H](C(C)C)N(C)C(=O)N1CC(OC)C1)C(=O)N1CCC[C@H](N1)C(=O)OCC(C)(C)C2
Value: 100 to 1000 nM
